Data provenance: patent US10961278B2

Consider the following molecules; for each one, report its MRT inf.
# ASSAY PROTOCOL: In vivo pharmacokinetic assay in mice
# CONDITION PARAMETERS: male, CD-1, mouse, in vivo, iv, 5 mg/kg
The figure you give is taken to be in h; do not add the unit.

Memo: CN[C@H](CC(C)C)C(=O)N[C@H]1C(=O)N[C@@H](CC(N)=O)C(=O)N[C@H]2C(=O)N[C@@H]3C(=O)N[C@H](C(=O)N[C@H](C(=O)O)c4cc(O)c(CNC5C(O)OC(CO)[C@H](O)[C@@H]5O)c(O)c4-c4cc3ccc4O)[C@H](O)c3ccc(c(Cl)c3)Oc3cc2cc(c3O[C@@H]2O[C@H](CO)C(O)C(O)[C@H]2O[C@H]2CC(C)(NCc3ccc(-c4ccc(C(F)(F)F)cc4)cc3)[C@H](O)[C@H](C)O2)Oc2ccc(cc2Cl)[C@H]1O (stereo partly drawn) [Van032] , reported MRT inf: 4.41

Memo: CN[C@H](CC(C)C)C(=O)N[C@H]1C(=O)N[C@@H](CC(N)=O)C(=O)N[C@H]2C(=O)N[C@@H]3C(=O)N[C@H](C(=O)N[C@H](C(=O)O)c4cc(O)c(CNC5C(O)OC(CO)[C@H](O)[C@@H]5O)c(O)c4-c4cc3ccc4O)[C@H](O)c3ccc(c(Cl)c3)Oc3cc2cc(c3O[C@@H]2O[C@H](CO)C(O)C(O)[C@H]2O[C@H]2CC(C)(NCc3ccc(-c4ccc(Cl)cc4)cc3)[C@H](O)[C@H](C)O2)Oc2ccc(cc2Cl)[C@H]1O (stereo partly drawn) [Van038] , reported MRT inf: 4.18

Memo: CN[C@H](CC(C)C)C(=O)N[C@H]1C(=O)N[C@@H](CC(N)=O)C(=O)N[C@H]2C(=O)N[C@H]3C(=O)N[C@H](C(=O)N[C@H](C(=O)O)c4cc(O)c(CNCCO[C@@H]5OC(CO)[C@H](O)C(O)C5O)c(O)c4-c4cc3ccc4O)[C@H](O)c3ccc(c(Cl)c3)Oc3cc2cc(c3OC2O[C@H](CO)C(O)C(O)[C@H]2O[C@@H]2CC(C)[C@@H](O)C(C)(NCc3ccc(-c4ccc(C(F)(F)F)cc4)cc3)C2)Oc2ccc(cc2Cl)[C@H]1O (stereo partly drawn) [Van037] , reported MRT inf: 4.21
